- Experimental protocol: in vitro
- Test conditions: human, HaCaT cells
- Description: Cytotoxicity against human HaCaT cells assessed as reduction in cell proliferation incubated for 72 hrs by MTT assay
Reported IC50 at 72 h values follow for various compounds

Solved entries (count: 3):
NS(=O)(=O)c1cc(C(=O)N/N=C/c2ccc(O)cc2O)c(SCc2ccccc2)cc1Cl: 58 µM
NS(=O)(=O)c1cc(C(=O)N/N=C/c2ccc(O)cc2O)c(SCc2ccc(F)cc2)cc1Cl: 32 µM
NNC(=O)c1cc(S(N)(=O)=O)c(Cl)cc1SCc1ccc(F)cc1: 65 µM

Continue with the compound presented below.
Recorded result, NS(=O)(=O)c1cc(C(=O)N/N=C/c2ccc(Br)cc2O)c(SCc2ccc(F)cc2)cc1Cl , IC50 at 72 h: 33 µM
